Biological target: human cloned 5-HT6 receptors (Homo sapiens, UniProt P50406)
Construct: expressed in transfected cells; host or cells: Hela cells
Sequence (P50406 whole entry): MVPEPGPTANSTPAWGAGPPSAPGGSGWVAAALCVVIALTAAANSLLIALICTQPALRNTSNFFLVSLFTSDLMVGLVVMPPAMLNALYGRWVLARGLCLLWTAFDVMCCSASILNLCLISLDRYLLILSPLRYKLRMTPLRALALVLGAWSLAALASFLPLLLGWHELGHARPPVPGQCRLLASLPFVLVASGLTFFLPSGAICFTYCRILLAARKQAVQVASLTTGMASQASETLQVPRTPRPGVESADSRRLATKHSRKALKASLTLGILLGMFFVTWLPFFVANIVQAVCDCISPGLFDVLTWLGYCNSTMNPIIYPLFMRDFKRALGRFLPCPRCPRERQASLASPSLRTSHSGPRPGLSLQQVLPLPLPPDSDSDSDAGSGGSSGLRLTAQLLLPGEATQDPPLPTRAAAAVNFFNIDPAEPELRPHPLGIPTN
Experiment: 5-HT6 binding affinity, [3H]-LSD displacement on membranes of Hela cells expressing human cloned 5-HT6 receptors
Settings: [3H]-LSD 3.0 nM; Hela cell membranes; 120 min at room temperature; read-out: 5-HT6 binding Ki
Measured log10(Ki) accompanies every entry in the list below.
Scale: log10; quantity: Ki; unit before log: µM

* O=S(=O)(c1ccc(I)cc1)n1ncc2cc(N3CCNCC3)ccc21 | -1.74
* Nc1ccc(S(=O)(=O)n2ccc3c(N4CCN(Cc5ccc(Cl)s5)CC4)cccc32)cc1 | -1.23
* CN1CCN(c2cccc3c2ccn3S(=O)(=O)c2ccc(N)cc2)CC1 | -2.52
* COc1cccc(CN2CCN(c3cccc4c3ccn4S(=O)(=O)c3ccc(OC)c(OC)c3)CC2)c1 | -1.85
* O=S(=O)(c1ccccc1)n1ccc2c(N3CCN(Cc4ccncc4)CC3)cccc21 | -2.40
* COc1ccc(S(=O)(=O)n2ccc3c(N4CCN(Cc5cccnc5)CC4)cccc32)cc1OC | -1.77

Request: Form field: reported log10(Ki) of `O=S(=O)(c1ccc(Cl)cc1)n1ncc2c(N3CCN(Cc4ccccc4)CC3)cccc21`
Response: -1.06

Request: What does the record list as log10(Ki) for `Nc1ccc(S(=O)(=O)n2ccc3c(N4CCN(Cc5cccc([N+](=O)[O-])c5)CC4)cccc32)cc1` ?
Response: -2.30

Request: Look up log10(Ki) for this molecule: `COc1cccc(CN2CCN(c3cccc4c3ccn4S(=O)(=O)c3ccccc3Br)CC2)c1`
Response: -2.40

Request: Can you share its log10(Ki)? I mean this molecule: `O=S(=O)(c1cc(Cl)c(Cl)s1)n1ncc2c(N3CCN(Cc4ccccc4)CC3)cccc21`
Response: -1.09

Request: # lookup: log10(Ki) of `CCCN1CCN(c2cccc3c2cnn3S(=O)(=O)c2ccccc2)CC1`
Response: -2.70

Request: Could you tell me which log10(Ki) is on file for `O=S(=O)(c1c(Cl)nc2sccn12)n1ccc2c(N3CCN(Cc4cccnc4)CC3)cccc21` ?
Response: -2.22

Request: # query: log10(Ki) of entry `COc1ccc(S(=O)(=O)n2ccc3c(N4CCN(Cc5ccncc5)CC4)cccc32)cc1OC`
Response: -2.00

Request: # lookup: log10(Ki) of `O=S(=O)(c1ccc(F)cc1)n1ncc2c(N3CCN(Cc4ccccc4)CC3)cccc21`
Response: -1.08

Request: # get_value(readout='log10(Ki)', item= `O=S(=O)(c1ccccc1Br)n1ccc2c(N3CCN(Cc4cccnc4)CC3)cccc21` )
Response: -3.00
